Data origin, for the record: PubChem BioAssay

Catalogue of molecules with associated z-score
experiment: JC-1 mitochondrial signal, unstimulated MM1S myeloma – cell-based, JC-1 fluorescence, 24 h, 100 nL compound, profiling panel (AID 1170); settings: MM1S mitochondrial potential, higher = more signal; further: test concentration not given here
Enter a number only.

Here are 3 molecules together with their reported answers.
{"molecule": "COCCOC(=O)N1C(=O)[C@@]2(c3ccccc31)[C@H](C(=O)N1CCc3cc(OC)c(OC)cc3C1)[C@H]1C(=O)O[C@H](c3ccccc3)[C@H](c3ccccc3)N1[C@@H]2c1ccc(O)cc1", "quantitative.readout": 0.0766}
{"molecule": "COc1ccc([Si](C)(C)[C@@H]2[C@@H](CC(=O)N3CCC[C@H]3CO)O[C@]3(C(=O)N(Cc4cccc(I)c4)c4ccccc43)[C@H]2C)cc1", "quantitative.readout": -1.48}
{"molecule": "CN(C)CCCCNC(=O)[C@@H]1C[C@@H]2C(=O)N[C@@H](CCCCN)C(=O)N2[C@@H]1c1ccc(O)cc1", "quantitative.readout": -1.29}

GET /value?item= CS(=O)(=O)CCOC(=O)C1=CC(CCCO)=CC(c2ccc(CN3CCCC3)cc2)N(Cc2cccc(OC(F)(F)F)c2)C=C1C(=O)OCCS(C)(=O)=O (centres undefined) &field=z-score returns -0.935

GET /value?item= COc1cc2c(cc1O)C(c1cccs1)N(Cc1ccc([N+](=O)[O-])o1)CC2 (centres undefined) &field=z-score returns 1.09

GET /value?item= O=C(NC1CC1)[C@@H]1c2ccccc2C(=O)N(Cc2cc(F)cc(C(F)(F)F)c2)[C@H]1c1ccc(CO)cc1 &field=z-score returns -0.232

GET /value?item= C=CCNC(=O)[C@@H]1[C@H]2C(=O)O[C@H](c3ccccc3)[C@H](c3ccccc3)N2[C@H](c2ccc(OCCO)cc2)[C@@]12C(=O)N(C(=O)OCCOC)c1ccc(C#CCNC(N)=O)cc12 &field=z-score returns 0.679

GET /value?item= O=C(NC1CC1)[C@@H]1c2ccccc2C(=O)N(C2Cc3ccccc3C2)[C@H]1c1ccc(CO)cc1 &field=z-score returns 0.339

GET /value?item= CCCCN1CC=CC23O[C@@H]4C=CCCOC(=O)C4[C@H]2C(=O)N(CCCCCO)[C@@H]3C1=O (some centres undefined) &field=z-score returns -0.832

GET /value?item= C=CCNC(=O)[C@@H]1[C@H]2C(=O)O[C@H](c3ccccc3)[C@H](c3ccccc3)N2[C@H](c2ccc(OCCO)cc2)[C@@]12C(=O)N(C(=O)OCCOC)c1ccc(C#CCC(C(=O)OC)C(=O)OC)cc12 &field=z-score returns -1.16

GET /value?item= CCCCC(=C=CC[C@@H](O)c1ccc(CO)o1)CCO &field=z-score returns 0.321

* * *

biological target: Albumin (Bos taurus); experiment: compounds binding labelled BSA control protein – biochemical, small-molecule microarray, Alexa647 label, 635/667 nm fluorescence, artefact control for SMM control protein annotation, profiling panel (AID 1118); conditions: BSA-A647 binding, fluorescence 635 nm, higher = more signal;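 further: score merges 667 nm emission intensity and signal-to-noise per printed compound spot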
Returns one of y or n; y when composite z-score is >= 0.8.

Would you please look over these solved cases?
{"compound": "CN1C(=O)C2C=CC(C(O)C=Cc3ccc([N+](=O)[O-])cc3)N(Nc3ccccc3)C2C1=O (stereo unspecified)", "label": "y"}
{"compound": "CCOC(=O)C[C@H]1[C@H](OC(=O)c2ccc(C(=O)c3ccccc3)cc2)[C@@H](NC(=O)c2ccccc2)c2cc(OCCCO)ccc2N1C(=O)c1ccccc1", "label": "n"}
{"compound": "COC(=O)[C@@]1(Cc2ccc(F)cc2)[C@H]2c3cc(C(=O)N(C)C)n(Cc4ccc(C)o4)c3C[C@H]2CN1C(=O)c1ccccc1", "label": "n"}
{"compound": "COC(=O)[C@@]1(Cc2ccc(OC)cc2)[C@H]2c3cc(C(=O)N4CCCC4)n(CCc4ccc(O)c(O)c4)c3C[C@H]2CN1C(=O)c1ccccc1", "label": "y"}
{"compound": "CCCCC(=C=CC[C@H](O)c1cccc(OCCO)c1)C[C@H](O)c1ccccn1", "label": "n"}
{"compound": "COC(=O)[C@@]1(Cc2ccccc2)[C@H]2c3cc(C(=O)N(C)C)n(CCc4c[nH]c5ccc(O)cc45)c3C[C@H]2CN1C(=O)c1ccccc1", "label": "y"}
{"compound": "CCCC=C(CCC)[C@@H](NS(=O)(=O)c1ccc(Cl)cc1)c1ccc(C(=O)OC)cc1", "label": "n"}
{"compound": "CC(C)C(=C=CC[C@H](O)c1ccc(CO)o1)CCO", "label": "y"}

Lookup: Determine whether measured composite z-score meets or exceeds 0.8 for C=C(CCCC)C(=O)CC[C@H](OC(=O)c1cccnc1)c1ccc(OCCO)cc1
Found: n

Lookup: Determine whether measured composite z-score meets or exceeds 0.8 for COc1ccc(C(=O)Nc2ccc(CN3C(=O)[C@]4(O[C@H](CC(=O)N5CCC[C@H]5CO)[C@@H]([Si](C)(C)c5ccc(OC)cc5)[C@@H]4C)c4ccccc43)cc2)cc1
Found: n

* * *

Catalogue of compounds with associated composite z-score
target: Torsin-1A (Homo sapiens); test: torsin A mutant lysate binding on microarrays – cell lysate, small-molecule microarray, COS7 lysate, 635/667 nm fluorescence, primary screen (AID 1150); settings: COS7 hTOR1A mutant lysate, 635 nm fluorescence, higher = more signal;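 further: score pools 667 nm emission and signal to noise measuring lysate protein binding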
Enter a number only.

Here are 4 compounds together with their reported answers.
{"compound": "COC(=O)[C@@]1(Cc2ccc(OC)cc2)[C@H]2c3cc(C(=O)N4CCCC4)n(CCc4ccc(O)c(O)c4)c3C[C@H]2CN1C(=O)c1ccccc1", "property": "composite z-score", "quantitative.readout": 0.641}
{"compound": "COC(=O)[C@@]1(Cc2ccc(OC)cc2)[C@H]2c3cc(C(=O)N4CCCC4)n(CCSCCO)c3C[C@H]2CN1C(=O)c1ccccc1", "property": "composite z-score", "quantitative.readout": 1.45}
{"compound": "COc1ccc(C(=O)Nc2cccc(CN3C(=O)[C@]4(O[C@H](CCn5cc(CCO)nn5)[C@@H]([Si](C)(C)c5ccc(OC)cc5)[C@@H]4C)c4ccccc43)c2)cc1", "property": "composite z-score", "quantitative.readout": 0.359}
{"compound": "CO[C@H]1O[C@H](CO)[C@@H](OC(=O)Nc2ccc(Oc3ccccc3)cc2)[C@H](OC(=O)Nc2ccc3c(c2)OCO3)[C@@H]1OC(=O)Nc1ccc2c(c1)OCO2", "property": "composite z-score", "quantitative.readout": 1.58}

GET /value?item= CCCC[C@H]1C[C@@H]1[C@@H]1N(P(=O)(c2ccccc2)c2ccccc2)C[C@@](O)(c2ccccc2)CC12CC2 &field=composite z-score returns 0.409

GET /value?item= C=C(CCCC)/C(=C/C[C@@H](OC(C)=O)c1ccccc1OCCO)c1cc(C(=O)OC)ccc1OC &field=composite z-score returns 0.0547

GET /value?item= O=C1OCCC=C[C@H]2OC34C=CCN(c5ccc(Cl)cc5)C(=O)[C@H]3N(CCCO)C(=O)[C@@H]4C12 (some centres undefined) &field=composite z-score returns -1.56

GET /value?item= COCCOC(=O)N1C(=O)[C@@]2(c3cc(C#Cc4ccc(OC)cc4)ccc31)[C@H](c1ccc(O)cc1)N1[C@H](c3ccccc3)[C@H](c3ccccc3)OC(=O)[C@H]1[C@@H]2C(=O)Nc1nc2ccccc2s1 &field=composite z-score returns 0.226

GET /value?item= [N-]=[N+]=Nc1ccccc1C[C@@]1(C(=O)N2CCCCC2)N=C(c2ccc(OCCCO)cc2)O[C@@H]1c1ccccc1 &field=composite z-score returns 0.36

GET /value?item= COC(=O)C[C@H]1O[C@@H](CCc2ccccc2)[C@@H](C)[C@@H]1[Si](C)(C)c1ccc(OC)cc1 &field=composite z-score returns -0.23

* * *

test system: wheat germ agglutinin (Triticum aestivum), Alexa647-labelled; test: Alexa647-WGA lectin binding to printed small molecules – biochemical, small-molecule microarray, 635/667 nm fluorescence, artefact control for SMM control-protein annotation, profiling panel (AID 1140); conditions: WGA-A647 binding, 635 nm fluorescence, higher = more signal;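 further: score merges 667 nm feature emission with signal to noise over triplicate slides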
Returns one of 1 or -1; 1 when composite z-score is >= 0.5.

Would you please look over these solved cases?
{"molecule": "O=C1OCCC/C=C\\[C@H]2OC34C=CCN(c5ccc6ccccc6c5)C(=O)[C@H]3N(CCCCCO)C(=O)[C@@H]4C12 (some centres undefined)", "label": -1}
{"molecule": "[N-]=[N+]=Nc1ccccc1C[C@@]1(C(=O)N2CCCCC2)N=C(c2ccc(OCCCO)cc2)O[C@@H]1c1ccccc1N=[N+]=[N-]", "label": 1}
{"molecule": "COCCOC(=O)N1C(=O)[C@@]2(c3cc(C#CC4(O)CCCCCC4)ccc31)[C@H](C(=O)Nc1nc3ccccc3s1)[C@H]1C(=O)O[C@H](c3ccccc3)[C@H](c3ccccc3)N1[C@@H]2c1ccccc1OCCO", "label": 1}
{"molecule": "CCCC=C(CCC)[C@@H](NS(=O)(=O)c1ccc(Cl)cc1)c1ccc(C(=O)OC)cc1", "label": -1}
{"molecule": "COc1ccc([Si](C)(C)[C@@H]2[C@@H](CCn3cc([C@H](O)c4ccccc4)nn3)O[C@]3(C(=O)N(Cc4cccc(N5CCC5=O)c4)c4ccccc43)[C@H]2C)cc1", "label": -1}
{"molecule": "C=C(/C(=C/C[C@H](OC(=O)c1ccncc1)c1ccc(OCCO)cc1)c1cc(C(=O)OC)ccc1OC)C(C)C", "label": 1}

Lookup: Determine whether measured composite z-score meets or exceeds 0.5 for COCCCNC(=O)[C@@H]1c2ccccc2C(=O)N(Cc2ccccc2OC)[C@H]1c1ccc(CO)cc1
Found: 1

Lookup: Determine whether measured composite z-score meets or exceeds 0.5 for COc1cc2c(cc1O)C(c1cccs1)N(Cc1cccc(OC(F)(F)F)c1)CC2 (centres undefined)
Found: 1
